- experimental-details: PK parameters, oral route, rat
- Assay type: in vivo
- conditions-used: plasma, 10-15 mg/kg, dose-normalised ratio of oral to i.v. mean AUC, read-out: % F (oral bioavailability)
measured-quantity: bioavailability (%)

(1) N[C@H](C(=O)NO)[C@@H](CC1CCCC1)C(=O)N1CCN(Cc2ccc3c(c2)OCO3)CC1 [Example 27]
(2) CC(C)C[C@@H](C(=O)N1CCOCC1)[C@H](N)C(=O)NO [Example 10]
INPUT: Hi team, can someone confirm which has the larger bioavailability: 1 or 2 ? Thanks. In your reply, give the label of the chosen option.
OUTPUT: 1

(A) N[C@H](C(=O)NO)[C@@H](CC1CCCC1)C(=O)N1CCCCC1 [Example 22]
(B) Cc1ccc(S(=O)(=O)N[C@H](C(=O)NO)[C@@H](CC(C)C)C(=O)N2CCOCC2)cc1 [Example 12]
INPUT: Dear colleague, could you let me know whether A or B has the lower recorded bioavailability? Thanks. Indicate your choice by writing its label.
OUTPUT: B

The reported measurements were obtained from patent US6482827B1.
